Ref: patent US20060234237A1

Test system: HT-29
assay.protocol: In vitro cytotoxicity MTS assay
Assay type: cell-based
setup.conditions: Homo sapiens, 72 hours, mean of 2 to 5 determinations
Where a name gives a salt, the structure may show the parent alone.
observable: IC50

Prompt: Answer with reported IC50 of C#Cc1cccc(Nc2ncnc3cc(OCCOC)c(OCCOC)cc23)c1 [BMS-461453, erlotinib HCl]
Response: > 10 µM
